- TEST SYSTEM: Dnmt3a-CD WT (Mus musculus, UniProt O88508 608-908)
- Sequence (O88508 608-908): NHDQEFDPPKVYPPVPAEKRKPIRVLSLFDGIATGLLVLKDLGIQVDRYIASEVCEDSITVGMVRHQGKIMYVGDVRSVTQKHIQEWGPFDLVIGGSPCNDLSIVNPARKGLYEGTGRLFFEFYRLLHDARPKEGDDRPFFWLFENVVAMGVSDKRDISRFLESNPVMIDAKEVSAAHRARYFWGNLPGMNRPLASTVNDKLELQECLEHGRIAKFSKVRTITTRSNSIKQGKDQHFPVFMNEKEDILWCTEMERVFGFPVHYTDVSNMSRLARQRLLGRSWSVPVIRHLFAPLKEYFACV
- ASSAY PROCEDURE: fluorescence polarization; 100 uM AdoHcy; Buffer A: 20 mM HEPES pH 7.5, 100 mM KCl, 1 mM EDTA, 1 mM DTT, 100 uM AdoHcy, 25 C; DNA 100 nM (Methods) or 10 nM (Figure 6 legend); Hill fit
- STATED CONDITIONS: protein: recombinant; tags: C-terminal His6 (Results); chain copies: 2; label: 5'-FAM on strand 1 via aminohexyl linker; blunt
MEASUREMENT KIND: pKd
Please report pKd as the negative decimal logarithm of the molar concentration, giving only the number.

input: Quick one: pKd for fCG/CG (dsDNA) DNA 1: CTGAATACTACTTGCGCTCTCTAACCTGAT DNA 2: ATCAGGTTAGAGAGCGCAAGTAGTATTCAG ?
output: 7.11
